Values were extracted from ChEMBL document CHEMBL4308851.

System: Staphylococcus aureus
assay.notes: Antibacterial activity against Staphylococcus aureus ATCC 25923 after 18 hrs by microdilution broth method
Format: functional
particulars: ATCC 25923, 18 h
value.kind: MIC (µg/mL)
Give bare numbers, in µg/mL.

Example cases with answers are listed next.
- N=C(N)NCCCCCCN(CCCCCCNC(=N)NCC1CC1)C(=O)N(CCCCCCNC(=N)NCC1CC1)CCCCCCNC(=N)NCC1CC1: 4
- N=C(N)NCCCCCCCCN(CCCCCCCCNC(=N)N)C(=O)N(CCCCCCCCNC(=N)NCC1CC1)CCCCCCCCNC(=N)NCC1CC1: 8
- CCNC(=N)NCCCCCCN(CCCCCCNC(=N)N)C(=O)N(CCCCCCNC(=N)NCC)CCCCCCNC(=N)NCC: 32
- CNC(=O)NC(=N)NCCCCCCCCN(CCCCCCCCNC(=N)NC(=O)NC)C(=O)N(CCCCCCCCNC(=N)NCC1CC1)CCCCCCCCNC(=N)NCC1CC1: 2
- N=C(N)NCCCCCCN(CCCCCCNC(=N)NCC1CC1)C(=O)N(CCCCCCNC(=N)N)CCCCCCNC(=N)NCC1CC1: 4

Please supply MIC for each of the following items, keeping them in order.
1. CNC(=N)NCCCCCCCCN(CCCCCCCCNC(=N)N)C(=O)N(CCCCCCCCNC(=N)N)CCCCCCCCNC(=N)NC
2. N=C(N)NCCCCCCCCN(CCCCCCCCNC(=N)N)C(=O)N(CCCCCCCCNC(=N)N)CCCCCCCCNC(=N)N
3. N=C(N)NCCCCCCCCN(CCCCCCCCNC(=N)NCC1CC1)C(=O)N(CCCCCCCCNC(=N)N)CCCCCCCCNC(=N)NCC1CC1
4. N=C(NCCCCCCCCN(CCCCCCCCNC(=N)NCc1ccccc1)C(=O)N(CCCCCCCCNC(=N)NCc1ccccc1)CCCCCCCCNC(=N)NCc1ccccc1)NCc1ccccc1
5. N=C(N)NCCCCCCCCN(CCCCCCCCNC(=N)NCc1ccccc1)C(=O)N(CCCCCCCCNC(=N)N)CCCCCCCCNC(=N)NCc1ccccc1
6. N=C(NCCCCCCCCN(CCCCCCCCNC(=N)NCC1CC1)C(=O)N(CCCCCCCCNC(=N)NCC1CC1)CCCCCCCCNC(=N)NCC1CC1)NCC1CC1
7. CCNC(=N)NCCCCCCCCN(CCCCCCCCNC(=N)N)C(=O)N(CCCCCCCCNC(=N)N)CCCCCCCCNC(=N)NCC
8. N=C(NCCCCCCCCN(CCCCCCCCNC(=N)NCC1CC1)C(=O)N(CCCCCCNC(=N)NCC1CC1)CCCCCCNC(=N)NCC1CC1)NCC1CC1

1: 0.5; 2: 2; 3: 2; 4: 8; 5: 2; 6: 16; 7: 1; 8: 2
